system: HOP-62 NSCLC; assay: NCI tumour cell line growth inhibition, 48 h; in the data active means GI50 below about 0.43 µM; inactive means the rest
Possible outcomes: TRUE = active, FALSE = inactive

{"Record Smiles": "COc1ccc(CN2c3ccccc3CCc3ccccc32)cc1F", "Classification": "FALSE"}
{"Record Smiles": "COc1cc2nc(-c3ccc(C(F)(F)F)cc3)cc(OCCCN3CCCCC3)c2cc1OC", "Classification": "FALSE"}
{"Record Smiles": "Cc1c2ccc(N(C)c3ccnc(Nc4cccc(S(N)(=O)=O)c4)n3)cc2nn1C", "Classification": "FALSE"}
{"Record Smiles": "CC(C)(C)NC(=O)[C@H]1C[C@H]2CCCC[C@H]2CN1C[C@@H](O)[C@H](Cc1ccccc1)NC(=O)[C@H](CC(N)=O)NC(=O)c1ccc2ccccc2n1", "Classification": "FALSE"}
{"Record Smiles": "O=[N+]([O-])c1ccc2c(c1)[O][Sn][O]2", "Classification": "FALSE"}
{"Record Smiles": "Cc1ccc(NC(=O)Cn2c(Br)nc3c2c(=O)n(C)c(=O)n3C)cc1", "Classification": "FALSE"}
{"Record Smiles": "Cn1cc(CNCC2CCN(c3ncc(C(=O)NO)cn3)CC2)c2ccccc21", "Classification": "TRUE"}

###

Measured GI50 of individual entries
system: MALME-3M melanoma; experiment: NCI tumour cell line growth inhibition, 48 h

{"Record Smiles": "Cc1cc(-c2nnc3n2CCCCC3)c(C)n1-c1ccc(Cl)c(Cl)c1", "GI50": "13.8 µM"}
{"Record Smiles": "Oc1ccccc1-c1nc2c3ccccc3c3ccccc3c2[nH]1", "GI50": "16.2 µM"}
{"Record Smiles": "COc1ccc(C(=O)N2c3ccccc3Sc3ccccc32)c(C(F)(F)F)c1", "GI50": "25.8 µM"}
{"Record Smiles": "O=C1CC(=O)OC(c2ccc([N+](=O)[O-])cc2)O1", "GI50": "2.28 µM"}
{"Record Smiles": "CC(C)[C@H]1C(=O)N[C@@H](CCCN=C(N)N)C(=O)NCC(=O)N[C@@H](CC(=O)O)C(=O)N[C@H](Cc2ccccc2)C(=O)N1C", "GI50": "> 100 µM"}
{"Record Smiles": "CCN(CCNc1ccc(C)c2sc3ccccc3c(=O)c12)CC(C)(C)O", "GI50": "17.8 µM"}
{"Record Smiles": "COc1cc2nc(-c3ccc(C(F)(F)F)cc3)cc(OCCCN3CCCCC3)c2cc1OC", "GI50": "1.26 µM"}

###

test system: HOP-18 NSCLC; experiment: NCI tumour cell line growth inhibition, 48 h
Catalogue of TGI values

{"Compound": "CN=C1SC(=Nc2ccc(N(C)C)cc2)N1C", "System Tested": "HOP-18 NSCLC", "TGI": "> 100 µM"}
{"Compound": "C#CCn1c(=O)c(C#N)c(O)c2cc3ccccc3nc21", "System Tested": "HOP-18 NSCLC", "TGI": "> 100 µM"}
{"Compound": "COc1cc(Br)c(C=Nc2cccc3ccc(OS(=O)(=O)c4cccc([N+](=O)[O-])c4)cc23)cc1OC", "System Tested": "HOP-18 NSCLC", "TGI": "> 100 µM"}
{"Compound": "COC(=O)C1=C(CS(=O)c2ccccc2[N+](=O)[O-])ON(C)C1c1ccccc1 (stereo unspecified)", "System Tested": "HOP-18 NSCLC", "TGI": "> 100 µM"}
{"Compound": "C=C1C(=O)OC2/C=C(\\C=O)CC/C=C(\\C)C(O)C[C@@H]12 (stereo partly specified)", "System Tested": "HOP-18 NSCLC", "TGI": "31.2 µM"}
{"Compound": "COC(=O)c1c(-c2ccccc2)sc(-c2cccc3ccccc23)c1C(=O)OC", "System Tested": "HOP-18 NSCLC", "TGI": "> 100 µM"}
{"Compound": "C=C=C(C(=O)OC)S(=O)c1ccc([N+](=O)[O-])cc1[N+](=O)[O-] (stereo unspecified)", "System Tested": "HOP-18 NSCLC", "TGI": "98.7 µM"}
{"Compound": "CCN(CC)c1ccc2c(c1)Nc1cc(=C(C#N)C#N)c3ccccc3c1=N2", "System Tested": "HOP-18 NSCLC", "TGI": "> 100 µM"}
{"Compound": "O=C(OC[C@H]1O[C@@H](OC(=O)c2cc(O)c(O)c(O)c2)[C@H](OC(=O)c2cc(O)c(O)c(O)c2)[C@@H](OC(=O)c2cc(O)c(O)c(O)c2)[C@@H]1OC(=O)c1cc(O)c(O)c(O)c1)c1cc(O)c(O)c(O)c1", "System Tested": "HOP-18 NSCLC", "TGI": "> 100 µM"}
{"Compound": "CC(=O)Oc1ccc(C2COc3cc(OC(C)=O)c(OC(C)=O)cc3C2)cc1 (stereo unspecified)", "System Tested": "HOP-18 NSCLC", "TGI": "46.8 µM"}
{"Compound": "N#CC(NNC(=O)c1ccccc1O)c1cccc(O)c1 (stereo unspecified)", "System Tested": "HOP-18 NSCLC", "TGI": "> 100 µM"}
{"Compound": "N.N.N.N.N.N.O=N[O-].[Br-].[Co+3].[Co+3].[OH3+].[OH3+]", "System Tested": "HOP-18 NSCLC", "TGI": "> 100 µM"}
{"Compound": "COc1cc2c(cc1OC)-c1c3c(cc4c1[C@@H](C2)N(C)CC4)OCO3", "System Tested": "HOP-18 NSCLC", "TGI": "52 µM"}
{"Compound": "CCOC(=O)COS(=O)(=O)C(F)(F)F", "System Tested": "HOP-18 NSCLC", "TGI": "> 100 µM"}
{"Compound": "O=Cc1ccc(-c2cccs2)s1", "System Tested": "HOP-18 NSCLC", "TGI": "> 100 µM"}
{"Compound": "COC(=O)c1nc(N)[nH]c(=O)c1CCCCCc1c(C(=O)OC)nc(N)[nH]c1=O", "System Tested": "HOP-18 NSCLC", "TGI": "> 50 µM"}

###

tested on: SR leukemia; test: NCI tumour cell line growth inhibition, 48 h

{"Compound": "CN(C)C(=O)O[C@@H]1CN[C@@H](C#Cc2cc3ncnc(Nc4ccc(OCc5cccc(F)c5)c(Cl)c4)c3s2)C1", "GI50": "20.1 µM"}
{"Compound": "CC(=O)Nc1ccc(S(=O)(=O)NNC(=O)c2cccnc2Nc2ccc(Cl)cc2)cc1", "GI50": "6.35 µM"}
{"Compound": "CCOc1c(Cl)cc(CNC(C)C(O)c2ccccc2)cc1OC (stereo not drawn)", "GI50": "17.1 µM"}
{"Compound": "CC[C@@]1(O)C(=O)OCc2c1cc1n(c2=O)Cc2cc3cc(N)ccc3nc2-1", "GI50": "0.0134 µM"}
{"Compound": "FCc1ncc(-c2ccc(C(F)(F)F)cc2)c(NC2CCCCCC2)n1", "GI50": "> 10 µM"}
{"Compound": "C[C@]12CC[C@@H]3c4ccc(O)cc4C(O)C[C@H]3[C@@H]1CCC2=O (stereo partly drawn)", "GI50": "> 100 µM"}
{"Compound": "COc1ccc(C(=O)N2c3ccccc3Sc3ccccc32)c(C(F)(F)F)c1", "GI50": "0.312 µM"}
{"Compound": "CCCCCCN(CCCCCC)CC(O)c1ccc2c3c(cccc13)CC2 (stereo not drawn)", "GI50": "3.32 µM"}

###

tested on: M14 melanoma; experiment: NCI tumour cell line growth inhibition, 48 h; in the data active = GI50 below about 0.43 µM; inactive = the rest
Labels: 1 = active, -1 = inactive

{"Compound": "COc1cc(Cn2c(-c3nonc3N)nc3ccccc32)ccc1C", "System Tested": "M14 melanoma", "Classification": 1}
{"Compound": "N#C[C@@H]1C(n2ccc(N)nc2=O)O[C@H](CO)[C@H]1O (stereo partly drawn)", "System Tested": "M14 melanoma", "Classification": -1}
{"Compound": "CN[C@@H]1C[C@H]2O[C@@](C)([C@@H]1OC)n1c3ccccc3c3c4c(c5c6ccccc6n2c5c31)C(=O)N[C@@H]4O", "System Tested": "M14 melanoma", "Classification": 1}
{"Compound": "COc1ccc(C(=O)N2c3ccccc3Sc3ccccc32)c(C(F)(F)F)c1", "System Tested": "M14 melanoma", "Classification": 1}
{"Compound": "COC(=O)C1=C(C(=O)OC)SC(=C(Cl)C(=S)Sc2ccccc2N)S1", "System Tested": "M14 melanoma", "Classification": -1}
{"Compound": "CCN(CC)CCCC(C)Nc1c2ccc(C)cc2nc2ccc(OC)cc12 (stereo not drawn)", "System Tested": "M14 melanoma", "Classification": -1}
{"Compound": "CSc1ccc(/C=C2\\C=C(CC(=O)NCc3ccc(C(=O)c4ccccc4)cc3)c3cc(F)ccc32)cc1", "System Tested": "M14 melanoma", "Classification": 1}
{"Compound": "CCC(c1cccc(O)c1)C(CC)c1cccc(O)c1 (stereo not drawn)", "System Tested": "M14 melanoma", "Classification": -1}
